Measured inhibition values are reported for all entries that follow.
# TARGET_SYSTEM: Leukocyte tyrosine kinase receptor (Homo sapiens) (UniProt P29376)
# Sequence (P29376 whole entry): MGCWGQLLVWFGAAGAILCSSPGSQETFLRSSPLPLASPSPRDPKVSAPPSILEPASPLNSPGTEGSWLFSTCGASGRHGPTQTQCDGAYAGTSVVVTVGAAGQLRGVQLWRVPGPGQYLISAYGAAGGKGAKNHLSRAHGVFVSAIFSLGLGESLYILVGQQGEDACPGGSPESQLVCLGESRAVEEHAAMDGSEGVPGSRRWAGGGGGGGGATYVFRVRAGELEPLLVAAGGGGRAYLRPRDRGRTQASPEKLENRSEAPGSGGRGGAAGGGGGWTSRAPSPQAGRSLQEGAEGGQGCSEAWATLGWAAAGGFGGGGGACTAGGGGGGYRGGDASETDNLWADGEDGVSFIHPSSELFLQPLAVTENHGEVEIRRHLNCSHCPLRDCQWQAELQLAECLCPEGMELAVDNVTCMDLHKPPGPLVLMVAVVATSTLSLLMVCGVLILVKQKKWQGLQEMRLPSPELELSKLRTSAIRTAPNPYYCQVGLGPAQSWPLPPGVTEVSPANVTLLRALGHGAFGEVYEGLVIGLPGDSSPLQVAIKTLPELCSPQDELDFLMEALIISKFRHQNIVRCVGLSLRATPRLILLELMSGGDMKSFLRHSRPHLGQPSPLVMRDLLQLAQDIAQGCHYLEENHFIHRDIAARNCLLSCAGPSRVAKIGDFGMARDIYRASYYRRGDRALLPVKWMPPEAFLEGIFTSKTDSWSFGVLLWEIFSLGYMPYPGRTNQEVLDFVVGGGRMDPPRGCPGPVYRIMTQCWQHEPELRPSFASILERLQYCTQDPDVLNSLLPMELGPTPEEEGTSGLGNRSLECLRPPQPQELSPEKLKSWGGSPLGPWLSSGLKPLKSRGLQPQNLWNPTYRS
# RECORDED_CONDITIONS: at 0.1 µM
# Description: GSK_PKIS: LTK mean inhibition at 0.1 uM [Nanosyn]
Give just the numeric value; % need not be written.

Some compounds with recorded inhibition:
CCn1c(-c2nonc2N)nc2ccncc21
1.29
COc1ccc(-c2coc3ncnc(N)c23)cc1
3.02

inhibition for `CCn1c(-c2nonc2N)nc2cncc(C(=O)N3CCNCC3)c21` is 5.18

For `O=C1NC(=O)C(c2cccc(Cl)c2)=C1Nc1ccc(O)c(Cl)c1` the compound record lists inhibition as 0

Query `CCn1c(-c2nonc2N)nc2cnc(Oc3cccc(NC(=O)c4ccc(OCCN5CCOCC5)cc4)c3)cc21` yields inhibition of 2.7

inhibition in this record for `Cc1cc(O)cc(C)c1/C=C/c1cncc(-c2nn[nH]n2)c1` : 6.07

# inhibition of `CS(=O)(=O)Nc1ccc(N/C=C2\C(=O)Nc3ccccc32)cc1` = 0.19

For reference, reported inhibition for `Fc1cccc(COc2ccc(Nc3ncnc4cc(-c5ccc[nH]5)sc34)cc2Cl)c1` stands at 2.11
